Assay: Phage titer assay of phage binding to hair
Design: species or system human
Details: phage-displayed peptide; six gray hair strands; relative to HP2-TonB-Gray3 = 100
readout.label: Phage Titer (%) relative to the activity of HP2-TonB-Gray3
# output: bare number, implied unit %

Some solved cases for reference:
molecule	quantitative.readout
Gray3-(EAAAKLL)4-HB1: hair-binding domain, SEQ ID NO: 100 (peptide) PSHDHKNQKETHQRHAAGPEAAAKLLEAAAKLLEAAAKLLEAAAKLLPATPPTNVLMLATKGS	1
HP2-(EEAAKK)4-Gray1: hair-binding domain, SEQ ID NO: 73 (peptide) PSAQSQLPDKHSGLHERAPQRYGPEEAAKKEEAAKKEEAAKKEEAAKKPAGMPAMHWIHPFAGS	40

Continue with the molecule presented below.
Phage Titer (%) relative to the activity of HP2-TonB-Gray3 in this record for HP2-(EEAAKK)4-MEA4: hair-binding domain, SEQ ID NO: 75 (peptide) PSAQSQLPDKHSGLHERAPQRYGPEEAAKKEEAAKKEEAAKKEEAAKKPAHINKTNPHQGNHHSEKTQRQGS : 80
